IC50 reference
system: Endogenous Huntingtin Protein; experiment: Endogenous Huntingtin Protein Assay (ELISA-based MSD electrochemiluminescence); assay type: cell-based; conditions: Table 1

These solved cases illustrate the format of a correct answer.
molecule	value-kind	reported-result
Cn1cc2cc(-c3cc4sc(NC5CC6CCC(C5)N6)nc4cn3)cc(F)c2n1 (centres unmarked)	IC50	≤ 100 nM
CN1CC=C(c2ccc3nc(-c4ccc5nn(C)cc5c4)sc3c2)CC1	IC50	1000 to 3000 nM
Cc1cn2nc(-c3cnc4nc(N(C)C5CC(C)(C)NC(C)(C)C5)sc4n3)cc(C)c2n1	IC50	≤ 100 nM
Cc1cn2nc(-c3cc(F)c4nc(C5CCNCC5)sc4c3)cc(CC(=O)O)c2n1	IC50	≤ 100 nM
Cc1cc(-c2nc3ccc(C4CCNCC4)cc3s2)cc2cn(C)nc12	IC50	100 to 500 nM

Prompt: Find the measured IC50: item CN1CCC(N(C)c2nc3nnc(-c4ccc(-c5cn[nH]c5)cc4O)cc3s2)CC1 , target or system Endogenous Huntingtin Protein.
Completion: 500 to 1000 nM

Prompt: Notebook entry, Endogenous Huntingtin Protein assay: IC50 of Cc1cn2nc(-c3cc(F)c4nc(N(C)C5CC(C)(C)NC(C)(C)C5)sc4c3)cc(C)c2n1 = ?
Completion: ≤ 100 nM

Prompt: Hi! What's the reported IC50 for Cc1cn2nc(-c3cnc4nc(N5CCNCC5)sc4n3)ccc2n1 on Endogenous Huntingtin Protein?
Completion: 500 to 1000 nM

---

tested on: Endogenous Huntingtin Protein; assay: Endogenous Huntingtin Protein Assay (ELISA-based MSD electrochemiluminescence); assay type: cell-based; conditions: Table 1
molecules and their reported IC50

Illustrative cases are given below, each with its answer.
molecule	IC50
Cc1cc(-c2cc3sc(N(C)C4CCNCC4)nc3cn2)cc2cn(C)nc12 [Compound 30]	0.1 to 0.5 µM
Cc1cn2cc(-c3ncc4nc(N(C)C5C6CCC5CNC6)sc4n3)cc(F)c2n1 (stereo not shown) [Compound 227]	1 to 3 µM
Cn1cc2cc(-c3cc4sc(OC5CCNCC5)nc4cn3)cc(F)c2n1 [Compound 316]	0.1 to 0.5 µM

Prompt: # value lookup — system Endogenous Huntingtin Protein, readout IC50, item Cc1cn2cc(-c3ccc4nc(N(C)C5CC(C)(C)NC(C)(C)C5)sc4c3)cc2c(C)n1 [Compound 55]
Completion: ≤ 0.1 µM

---

tested on: Endogenous Huntingtin Protein; experiment: Endogenous Huntingtin Protein Assay (ELISA-based MSD electrochemiluminescence); assay type: cell-based; conditions: Table 1
pIC50: −log10 of the molar value.
# Lookup of reported pIC50 keyed by entry

// below: answered compounds
compound	measured-on	pIC50
Cc1cn2cc(-c3ccc4nc(N(C)C5CC(C)(C)NC(C)(C)C5)sc4c3)cc(C#N)c2n1 [Compound 138]	Endogenous Huntingtin Protein	≥ 7.00
Cc1cn2cc(-c3ncc4nc(N(C)C5CC(C)(C)NC(C)(C)C5)sc4n3)cc(C#N)c2n1 [Compound 170]	Endogenous Huntingtin Protein	≥ 7.00
C[C@H]1C[C@@H](N(C)c2nc3nnc(-c4ccc(-c5cn[nH]c5)cc4O)cc3s2)CCN1C [Compound 395]	Endogenous Huntingtin Protein	≥ 7.00
Cc1cn2cc(-c3ccc4nc(N(C)C5CC6(C)CCC(C)(C5)N6)sc4n3)cc(F)c2n1 (stereo not shown) [Compound 292]	Endogenous Huntingtin Protein	≥ 7.00
CN(c1nc2nnc(-c3cc(F)c(-c4cn[nH]c4)cc3F)cc2s1)C1CCNCC1 [Compound 328]	Endogenous Huntingtin Protein	6.30 to 7.00

Prompt: // query pIC50 value for entry CCc1cc(-c2ccc3nc(N(C)C4CC(C)(C)NC(C)(C)C4)sc3c2)cc2cn(C)nc12 [Compound 54]
Completion: 6.30 to 7.00

Prompt: Which value of pIC50 has been reported for CN(c1nc2nnc(-c3ccc(-c4c[nH]nc4F)cc3O)cc2s1)C1CCCNCC1 (stereo not shown) [Compound 398] in the records?
Completion: ≥ 7.00

Prompt: Form field: reported pIC50 of Cn1cc2cc(-c3ccc4nc(OC5CC(C)(C)NC(C)(C)C5)sc4c3)ccc2n1 [Compound 64]
Completion: 5.52 to 6.00

Prompt: Looking for the measured pIC50 of Cc1cn2nc(-c3cc(F)c4nc(OC5CC(C)NC(C)C5)sc4c3)cc(C)c2n1 (stereo not shown) [Compound 135] , can you help?
Completion: ≥ 7.00

Prompt: Using the record for CN1CCC[C@H](N(C)c2nc3nnc(-c4ccc(-c5cn[nH]c5)cc4O)cc3s2)C1 [Compound 352] , report its pIC50.
Completion: ≥ 7.00

Prompt: State the recorded pIC50 for this entry: CN1CCC(N(C)c2nc3nnc(-c4ccc(-c5c[nH]nc5F)cc4O)cc3s2)CC1 [Compound 332]
Completion: ≥ 7.00

Prompt: I have this compound here, Cc1cn2nc(-c3cc(F)c4nc(N(C)C5CC6CCC(C5)N6)sc4c3)cc(C#N)c2n1 (stereo not shown) [Compound 235] , and I need its recorded pIC50.
Completion: ≥ 7.00

Prompt: Entry Cc1cn2cc(-c3cc4sc(N(C)C5CC(C)(C)NC(C)(C)C5)nc4cn3)ccc2n1 [Compound 87] : reported pIC50 = ?
Completion: ≥ 7.00

---

test system: Endogenous Huntingtin Protein; assay: Endogenous Huntingtin Protein Assay (ELISA-based MSD electrochemiluminescence); assay type: cell-based; conditions: Table 1
Listed below: IC50 values for each entry.

Guide cases for IC50, answers given:
compound	IC50
Cn1cc2cc(-c3cc4sc(C5CCNCC5)nc4cn3)cc(C(F)(F)F)c2n1	0.1 to 0.5 µM
CN(c1nc2ccc(-c3cc(F)c4nn(C)cc4c3)nc2s1)C1CC(C)(C)NC(C)(C)C1	0.1 to 0.5 µM
Cn1cc2cc(-c3cc4sc(OC5CC(C)(C)NC(C)(C)C5)nc4cn3)cc(F)c2n1	0.1 to 0.5 µM
Cc1cn2cc(-c3ncc4nc(N(C)C5C6CCC5CNC6)sc4n3)cc(C#N)c2n1 (centres unmarked)	0.5 to 1 µM
CN(c1nc2ccc(-c3ccc4[nH]ncc4c3)cc2s1)C1CC(C)(C)NC(C)(C)C1	0.1 to 0.5 µM
CN(c1nc2nnc(-c3ccc(-c4cn[nH]c4)cc3O)cc2s1)[C@H]1CCNC[C@H]1F	0.5 to 1 µM
Cc1nc2c(C#N)cc(-c3cc4sc(N(C)C5CC6(C)CCC(C)(C5)N6)nc4cn3)cc2o1 (centres unmarked)	≤ 0.1 µM

Prompt: Bench note: what IC50 did Cc1cn2cc(-c3ncc4nc(N(C)C5C[C@H]6CCC[C@@H](C5)N6)sc4n3)cc(F)c2n1 (some centres unmarked) show?
Completion: ≤ 0.1 µM

---

Examples of compounds with documented IC50 follow.
tested on: Endogenous Huntingtin Protein; test: Endogenous Huntingtin Protein Assay (ELISA-based MSD electrochemiluminescence); assay type: cell-based; conditions: Table 1

Use the examples below as a reference point.
compound	IC50
Cc1cn2cc(-c3cc4sc(N(C)C5CC6(C)CCC(C)(C5)N6)nc4cn3)ccc2n1 (stereo not shown)	≤ 100 nM
CN(c1nc2ccc(-c3cc(F)c4nn(C)cc4c3)nc2s1)C1CC2CCCC(C1)N2 (stereo not shown)	100 to 500 nM
Cc1cn2cc(-c3ncc4nc(N(C)C5CCNCC5)sc4n3)cc(C#N)c2n1	≤ 100 nM
COc1cc(-c2cc(F)c3nc(N(C)C4CC(C)(C)NC(C)(C)C4)sc3c2)nn2cc(C)nc12	≤ 100 nM
Cc1cn2nc(-c3cc(F)c4nc(N5CCC(O)CC5)sc4c3)cc(C)c2n1	100 to 500 nM

Prompt: Look at this compound and give its reported IC50. Cc1cn2nc(-c3cc(F)c4nc(N(C)C5CCN[C@@H](C)C5)sc4c3)cc(C)c2n1 (stereo partly shown)
Completion: ≤ 100 nM

Prompt: What value of IC50 has been reported for the following compound? COc1cc(-c2cc(C)c3nn(C)cc3c2)cc2sc(C3=CCNCC3)nc12
Completion: 100 to 500 nM

Prompt: What IC50 value was documented for this compound, Cn1cc2cc(-c3cc(F)c4nc(OC5CCNCC5)sc4c3)cc(C#N)c2n1 ?
Completion: ≤ 100 nM

Prompt: What value of measured IC50 is listed for Cc1cn2cc(-c3ncc4nc(N(C)[C@H]5C[C@]6(C)CC[C@](C)(C5)N6)sc4n3)cc2c(C)n1 ?
Completion: ≤ 100 nM

Prompt: Reported IC50, compound Cc1cn2cc(-c3cnc4nc(N5CCNCC5)sc4n3)cc(F)c2n1 : ____
Completion: 1000 to 3000 nM

---

Measured pIC50 by item
system: Endogenous Huntingtin Protein; assay: Endogenous Huntingtin Protein Assay (ELISA-based MSD electrochemiluminescence); format: cell-based; settings: Table 1
pIC50: −log10 of the molar value.

compound	measured-on	pIC50
CN(C)[C@H]1C[C@@H](N(C)c2nc3nnc(-c4ccc(-c5cn[nH]c5)cc4O)cc3s2)C1	Endogenous Huntingtin Protein	5.52 to 6.00
Cc1nc2ccc(-c3cc(F)c4nc(C5CCNCC5)sc4c3)cc2o1	Endogenous Huntingtin Protein	≥ 7.00
CCN1CCC(Oc2nc3c(F)cc(-c4cc(C)c5nc(C)cn5n4)cc3s2)CC1	Endogenous Huntingtin Protein	≥ 7.00

Prompt: Give the measured pIC50 of CN(C)C1CCN(c2nc3ccc(-c4ccc5nn(C)cc5c4)cc3s2)CC1 .
Completion: 5.52 to 6.00

Prompt: Please give the measured pIC50 for this compound: Cc1cn2nc(-c3cc(F)c4nc(N5CC(C)NC(C)C5)sc4c3)cc(C)c2n1 (centres unmarked)
Completion: ≥ 7.00

Prompt: I am curious: what pIC50 value has been reported for COC(=O)Cc1cc(-c2cc(F)c3nc(C4CCNCC4)sc3c2)nn2cc(C)nc12 ?
Completion: ≥ 7.00

Prompt: pIC50 for CN(c1nc2nnc(-c3ccc(-c4cn[nH]c4)cc3O)cc2s1)[C@H]1CCN[C@H](CO)C1 ?
Completion: ≥ 7.00

Prompt: I am curious: what pIC50 value has been reported for CN(c1nc2ncc(-c3ccc(-c4cn[nH]c4)cc3O)nc2s1)C1CC(C)(C)NC(C)(C)C1 ?
Completion: ≥ 7.00

Prompt: Quick one: pIC50 of Cn1cc2cc(-c3cc(F)c4nc(C5CCNCC5)sc4c3)cc(CN)c2n1 ?
Completion: ≥ 7.00

Prompt: Entry under review: Cc1cc(-c2cnc3nc(NC4CCNCC4)sc3c2)cc2cn(C)nc12 . Reported pIC50?
Completion: 5.52 to 6.00

Prompt: Suppose we examine the compound CN(c1nc2nnc(-c3ccc(-c4cn[nH]c4)cc3O)cc2s1)[C@@H]1CNC[C@@H]1F ; what pIC50 value has been reported?
Completion: 6.30 to 7.00

Prompt: For the compound shown here, Cn1cc2cc(-c3ccc4nc(C5CCCNCC5)sc4c3)ccc2n1 (centres unmarked) , give the reported pIC50.
Completion: 6.30 to 7.00

Prompt: Look at this compound and give its reported pIC50. CN(c1nc2cnc(-c3cc(F)c4nn(C)cc4c3)cc2s1)C1CC(C)(C)NC(C)(C)C1
Completion: ≥ 7.00

Prompt: Look up pIC50: Cc1cn2nc(-c3cc(F)c4nc(N(C)C5CCNCC5)sc4c3)ccc2n1
Completion: ≥ 7.00

Reference source: patent US12139499B2
